tested on: Lassa fever virus (Josiah strain); assay: organism not typed; assay type: cell-based; settings: read-out: Activity vs. LFV EC50
pEC50: −log10 of the molar value.

| compound | measurement-target | pEC50 |
| --- | --- | --- |
| COc1ccc(-n2cnc3cc(NCc4ccc(C(C)C)cc4)ccc32)cc1 [Compound 600193] | Lassa fever virus (Josiah strain) | > 7.00 |
| COc1ccc(CNc2ccc3c(c2)ncn3-c2ccc(OC)cc2)cc1 [Compound 600037] | Lassa fever virus (Josiah strain) | > 7.00 |

###

test system: LASV GP; assay: organism not typed; type: cell-based; details: HEK-293T, read-out: average IC50 against LASV GP pseudotypes
pIC50: −log10 of the molar value.
assay-metric: pIC50

| compound-string | result |
| --- | --- |
| COc1ccc(CNc2ccc3c(c2)ncn3-c2ccc(OC)cc2)cc1 | 7.80 |
